- SUBJECT_OF_TEST: Human recombinant dopamine D2S receptors (Homo sapiens, UniProt P14416)
- Construct: expressed in transfected cells; host or cells: CHO
- Sequence (P14416 1-414 isoform P14416-2): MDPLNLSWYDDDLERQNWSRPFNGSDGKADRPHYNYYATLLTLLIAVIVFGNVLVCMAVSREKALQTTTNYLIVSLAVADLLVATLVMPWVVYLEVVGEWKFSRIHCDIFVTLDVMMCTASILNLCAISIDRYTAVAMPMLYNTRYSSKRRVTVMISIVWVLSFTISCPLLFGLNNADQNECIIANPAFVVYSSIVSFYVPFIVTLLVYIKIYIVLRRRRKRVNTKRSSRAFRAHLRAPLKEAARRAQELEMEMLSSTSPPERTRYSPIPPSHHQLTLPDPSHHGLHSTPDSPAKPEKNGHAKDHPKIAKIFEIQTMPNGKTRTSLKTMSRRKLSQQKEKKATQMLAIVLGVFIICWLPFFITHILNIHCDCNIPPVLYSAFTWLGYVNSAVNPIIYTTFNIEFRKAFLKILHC
- ASSAY: D2S receptor radioligand binding inhibition ([3H]Spiperone)
- MEASUREMENT_SETUP: screened at 10 μM; mean of two replicates
Give inhibition at 10 µM for every item shown.
Reply numerically in %, unit not repeated.

Q: Returns the measured inhibition at 10 µM for the input compound. Input: CCN(CC)C(=O)C1C=C2c3cccc4[nH]cc(c34)CC2N(CCF)C1 (stereo not shown)
Ans: 0.6

Q: Returns the measured inhibition at 10 µM for the input compound. Input: CN1CC(C(=O)N2CC3(COC3)C2)C=C2c3cccc4[nH]cc(c34)CC21 (stereo not shown)
Ans: 83.1

Q: Returns the measured inhibition at 10 µM for the input compound. Input: CCN(CCF)C(=O)C1C=C2c3cccc4[nH]cc(c34)CC2N(C)C1 (stereo not shown) [Compound 4, lysergic acid monofluoro diethylamide]
Ans: 92.1

Q: Returns the measured inhibition at 10 µM for the input compound. Input: CN1CC(C(=O)NCC(F)(F)F)C=C2c3cccc4[nH]cc(c34)CC21 (stereo not shown) [Compound 3, lysergic acid mono-(trifluoroethyl)amide]
Ans: 64.2

###

Give inhibition at 10 µM for every item shown.
- SUBJECT_OF_TEST: Human recombinant serotonin 5-HT1A receptors (Homo sapiens)
- Construct: expressed in transfected cells; host or cells: CHO-K1
- Sequence (P08908 whole entry): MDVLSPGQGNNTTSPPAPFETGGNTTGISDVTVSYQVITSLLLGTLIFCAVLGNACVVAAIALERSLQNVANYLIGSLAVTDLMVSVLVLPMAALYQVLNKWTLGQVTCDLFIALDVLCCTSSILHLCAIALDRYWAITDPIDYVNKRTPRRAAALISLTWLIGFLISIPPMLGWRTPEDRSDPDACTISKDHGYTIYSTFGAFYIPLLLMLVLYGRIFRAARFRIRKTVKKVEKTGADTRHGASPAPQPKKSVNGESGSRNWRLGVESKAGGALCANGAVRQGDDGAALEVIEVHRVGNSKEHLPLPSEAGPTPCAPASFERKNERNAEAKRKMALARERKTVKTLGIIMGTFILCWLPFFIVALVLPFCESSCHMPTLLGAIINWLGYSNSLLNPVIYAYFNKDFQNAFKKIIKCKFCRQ
- ASSAY: 5-HT1A receptor radioligand binding inhibition ([3H]8-OH-DPAT)
- MEASUREMENT_SETUP: screened at 10 μM; mean of two replicates
Reply numerically in %, unit not repeated.

Q: Returns the measured inhibition at 10 µM for the input compound. Input: CN1CC(C(=O)NCC(F)(F)F)C=C2c3cccc4[nH]cc(c34)CC21 (stereo not shown) [Compound 3, lysergic acid mono-(trifluoroethyl)amide]
Ans: 101

Q: Returns the measured inhibition at 10 µM for the input compound. Input: CN1CC(C(=O)N2CC3(COC3)C2)C=C2c3cccc4[nH]cc(c34)CC21 (stereo not shown)
Ans: 96.3

Q: Returns the measured inhibition at 10 µM for the input compound. Input: CCN(CC)C(=O)C1C=C2c3cccc4[nH]cc(c34)CC2N(CCF)C1 (stereo not shown)
Ans: 100

Q: Returns the measured inhibition at 10 µM for the input compound. Input: CCN(CCF)C(=O)C1C=C2c3cccc4[nH]cc(c34)CC2N(C)C1 (stereo not shown) [Compound 4, lysergic acid monofluoro diethylamide]
Ans: 100

###

- SUBJECT_OF_TEST: human recombinant serotonin 5-HT2c receptors (Homo sapiens, UniProt P28335)
- Construct: expressed in transfected cells; host or cells: CHO-K1 (stably transfected)
- Sequence (P28335 33-458): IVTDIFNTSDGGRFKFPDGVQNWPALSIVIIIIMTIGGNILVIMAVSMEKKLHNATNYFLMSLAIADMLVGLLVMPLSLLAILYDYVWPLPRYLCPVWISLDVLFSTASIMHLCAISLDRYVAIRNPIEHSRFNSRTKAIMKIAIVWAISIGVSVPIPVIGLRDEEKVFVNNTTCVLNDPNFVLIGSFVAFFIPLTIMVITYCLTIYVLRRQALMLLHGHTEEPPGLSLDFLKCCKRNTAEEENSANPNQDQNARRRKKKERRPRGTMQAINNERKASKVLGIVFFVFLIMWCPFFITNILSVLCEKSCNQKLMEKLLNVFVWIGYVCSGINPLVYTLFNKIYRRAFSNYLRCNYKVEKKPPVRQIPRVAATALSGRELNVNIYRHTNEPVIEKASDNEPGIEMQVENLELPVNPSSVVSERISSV
- ASSAY: 5-HT2C receptor radioligand binding inhibition ([3H]Mesulergine)
- MEASUREMENT_SETUP: screened at 10 μM; mean of two replicates
Give inhibition at 10 µM for every item shown.
Kindly report the value followed by its unit.

Q: Returns the measured inhibition at 10 µM for the input compound. Input: CCN(CC)C(=O)C1C=C2c3cccc4[nH]cc(c34)CC2N(CCF)C1 (stereo not shown) [Compound 2]
Ans: 4.8%

Q: Returns the measured inhibition at 10 µM for the input compound. Input: CN1CC(C(=O)N2CC3(COC3)C2)C=C2c3cccc4[nH]cc(c34)CC21 (stereo not shown) [Compound 1]
Ans: 85.8%

Q: Returns the measured inhibition at 10 µM for the input compound. Input: CN1CC(C(=O)NCC(F)(F)F)C=C2c3cccc4[nH]cc(c34)CC21 (stereo not shown) [Compound 3, lysergic acid mono-(trifluoroethyl)amide]
Ans: 89.4%

Q: Returns the measured inhibition at 10 µM for the input compound. Input: CCN(CCF)C(=O)C1C=C2c3cccc4[nH]cc(c34)CC2N(C)C1 (stereo not shown) [Compound 4, lysergic acid monofluoro diethylamide]
Ans: 100%

The measurements presented in this section are drawn from patent US20230286975A1.
